Cited source: ChEMBL document CHEMBL1156277

# Test system: T47D
# METHOD_DESCRIPTION: Selectivity ratio EC50 for human H1299 cells over EC50 for human T47D cells
# Assay type: functional

[
  {
    "STRUCTURE": "COc1ccc(N(C)c2nc(C)nc3ccc(N)cc23)cc1",
    "Selectivity ratio": 2
  },
  {
    "STRUCTURE": "COc1ccc(N(C)c2nc(C)nc3nccnc23)cc1",
    "Selectivity ratio": 1.2
  },
  {
    "STRUCTURE": "COc1ccc(N(C)c2ccnc3ccccc23)cc1",
    "Selectivity ratio": 2
  },
  {
    "STRUCTURE": "COc1ccc(N(C)c2nccc3ccccc23)cc1",
    "Selectivity ratio": 2
  },
  {
    "STRUCTURE": "COc1ccc(N(C)c2nc(C)nc3ccc(N(C)C)cc23)cc1",
    "Selectivity ratio": 3.1
  },
  {
    "STRUCTURE": "COc1ccc(N(C)c2nc(C)nc3cc(N)ccc23)cc1",
    "Selectivity ratio": 0.73
  },
  {
    "STRUCTURE": "COc1ccc(N(C)c2nc(C)nc3ncccc23)cc1",
    "Selectivity ratio": 1.4
  },
  {
    "STRUCTURE": "COc1ccc(N(C)c2nc(C)nc3cc(N=[N+]=[N-])ccc23)cc1",
    "Selectivity ratio": 1.2
  },
  {
    "STRUCTURE": "COc1ccc(N(C)c2nc(C)nc3cc([N+](=O)[O-])ccc23)cc1",
    "Selectivity ratio": 2
  },
  {
    "STRUCTURE": "COc1ccc(N(C)c2nc(C)nc3ccc(NC(C)=O)cc23)cc1",
    "Selectivity ratio": 1.5
  },
  {
    "STRUCTURE": "COc1ccc(N(C)c2nc(C)nc3ccc([N+](=O)[O-])cc23)cc1",
    "Selectivity ratio": 0.33
  },
  {
    "STRUCTURE": "COc1ccc(N(C)c2nnnc3ccccc23)cc1",
    "Selectivity ratio": 2
  },
  {
    "STRUCTURE": "COc1ccc(N(C)c2nc(C)nc3cccc(OC)c23)cc1",
    "Selectivity ratio": 2
  }
]

* * *

// reported Kp per item
# METHOD_DESCRIPTION: Ratio of AUC in brain to plasma in mouse at 2.5 mg/kg, iv
# Assay type: ADME, organism-based
# Design: dose 2.5 mg/kg, route intravenous
# CONDITIONS: brain and plasma, read-out: Ratio AUC

[
  {
    "STRUCTURE": "COc1ccc(N(C)c2ccnc3ccccc23)cc1",
    "Kp": 9.2
  },
  {
    "STRUCTURE": "COc1ccc(N(C)c2nc(C)nc3ncccc23)cc1",
    "Kp": 1.8
  },
  {
    "STRUCTURE": "COc1ccc(N(C)c2nc(C)nc3nccnc23)cc1",
    "Kp": 2.1
  },
  {
    "STRUCTURE": "COc1ccc(N(C)c2nc(C)nc3ccc(N)cc23)cc1",
    "Kp": 3.6
  }
]

* * *

# METHOD_DESCRIPTION: Inhibition of tubulin polymerization

[
  {
    "STRUCTURE": "COc1ccc(N(C)c2nc(C)nc3ccccc23)cc1",
    "IC50 / nM": 2000
  },
  {
    "STRUCTURE": "COc1ccc(N(C)c2nc(C)nc3cccc(OC)c23)cc1",
    "IC50 / nM": 400
  },
  {
    "STRUCTURE": "COc1ccc(N(C)c2nccc3ccccc23)cc1",
    "IC50 / nM": 400
  },
  {
    "STRUCTURE": "COc1ccc(N(C)c2nc(C)nc3cc(N)ccc23)cc1",
    "IC50 / nM": 2000
  }
]
